# PROTOCOL DESCRIPTION: Selectivity ratio of IC50 for human MCF7 cells to IC50 for human IMR90 cells
# Format: ADME, cell-based, IMR-90
# ASSAY CONTEXT: MCF7 cells versus IMR90 cells, read-out: Ratio IC50
VALUE TYPE: selectivity ratio

[in] Query (compound): C[C@H](C(=O)Oc1ccc(-c2cc(=S)ss2)cc1)c1ccc2cc(OC(=O)CCCO[N+](=O)[O-])ccc2c1 ; field requested: selectivity ratio
[out] 70

[in] Query (compound): CC1=C(CC(=O)Oc2ccc(OC(=O)CCCO[N+](=O)[O-])c(C(=O)Oc3ccc(-c4cc(=S)ss4)cc3)c2)c2cc(F)ccc2/C1=C\c1ccc([S+](C)[O-])cc1 (configuration not stated) ; field requested: selectivity ratio
[out] 70
